Test: Part A single-ascending-dose plasma PK in healthy subjects
Format: in vivo, human
Details: human, plasma, iv, 4 g, part A cohort 6, single 4.0 g, 3-h i.v. infusion; read-out: AUC0–t
ASSAY_ENDPOINT: AUC(0-t) (µg·h/mL)
Give the number; µg·h/mL is assumed, so skip it.

For the compound CC1=C[C@@H]2CN(C(=O)N2OS(=O)(=O)O)[C@@H]1C(N)=O , give its reported AUC(0-t). 368

====

Test: Urine PK (urinary excretion, renal clearance) in healthy subjects
Details: human, urine, intravenous, 0.5 g, CLr, median, part B cohort 10, following the final dose on Day 8, 0.500 g
ASSAY_ENDPOINT: CL renal (mL/min)
Just the number in mL/min, nothing appended.

Given the compound CC1=C[C@@H]2CN(C(=O)N2OS(=O)(=O)O)[C@@H]1C(N)=O [DUR, Durlobactam] , write its reported CL renal. 96.2

====

Test: Urine PK (urinary excretion, renal clearance) in healthy subjects
Conditions: human, urine, intravenous, 16 g, CLr, mean, part B cohort 12, first 48 hours, dose over 48 hours 16.00 g (8 doses)
ASSAY_ENDPOINT: CL renal

Tell me its CL renal given CC1=C[C@@H]2CN(C(=O)N2OS(=O)(=O)O)[C@@H]1C(N)=O as the entry. 307 mL/min

====

Assay: Part A single-ascending-dose plasma PK in healthy subjects
Assay type: in vivo, human
Conditions: human, plasma, iv, 2 g, part A cohort 5, single 2.0 g, 3-h i.v. infusion; read-out: AUC0–24
ASSAY_ENDPOINT: AUC(0-t) (µg·h/mL)
Kindly answer with a numeric value in µg·h/mL, unit omitted.

Give the measured AUC(0-t) for CC1=C[C@@H]2CN(C(=O)N2OS(=O)(=O)O)[C@@H]1C(N)=O [DUR, Durlobactam] 173

====

Experiment: Part B multiple-ascending-dose plasma PK in healthy subjects
Type: in vivo, human
Details: human, plasma, iv, 0.25 g, part B cohort 9, 0.25 g q6h 3-h i.v. infusion, day 1
ASSAY_ENDPOINT: Cmax (ng/mL)
Record the value in ng/mL, omitting the unit from your answer.

Report measured Cmax; entry is CC1=C[C@@H]2CN(C(=O)N2OS(=O)(=O)O)[C@@H]1C(N)=O [DUR, Durlobactam] 6900

====

Test: Part A single-ascending-dose plasma PK in healthy subjects
Format: in vivo, human
Settings: human, plasma, iv, 1 g, part A cohort 8 (elderly subjects >65 years), single 1.0 g, 3-h i.v. infusion, mean ± SD, n=6; read-out: t1/2 (converted)
ASSAY_ENDPOINT: half-life (h)
Lab book: enter the figure in h, no units written.

Consider the compound CC1=C[C@@H]2CN(C(=O)N2OS(=O)(=O)O)[C@@H]1C(N)=O and give its recorded half-life. 2.4

====

Experiment: Urine PK (urinary excretion, renal clearance) in healthy subjects
Details: human, urine, intravenous, 0.25 g, CLr, mean, part B cohort 9, following the final dose on Day 8, 0.250 g
ASSAY_ENDPOINT: CL renal (mL/min)
// return numeric value only (unit: mL/min, not printed)

Name the recorded CL renal of the molecule listed here: CC1=C[C@@H]2CN(C(=O)N2OS(=O)(=O)O)[C@@H]1C(N)=O 84.1

====

Experiment: Part B multiple-ascending-dose plasma PK in healthy subjects
Format: in vivo, human
Conditions: human, plasma, iv, 2 g, part B cohort 12, 2.0 g q6h 3-h i.v. infusion, day 1, median
ASSAY_ENDPOINT: Tmax
Returns: string containing the number followed by the unit.

For the molecule CC1=C[C@@H]2CN(C(=O)N2OS(=O)(=O)O)[C@@H]1C(N)=O [DUR, Durlobactam] , give its measured Tmax value. 3 h

====

Assay: Part A single-ascending-dose plasma PK in healthy subjects
Type: in vivo, human
Details: human, plasma, iv, 2 g, part A cohort 5, single 2.0 g, 3-h i.v. infusion, median
ASSAY_ENDPOINT: Tmax (h)
Write the answer as a number in h, unit excluded.

Give the reported value of Tmax for this record: CC1=C[C@@H]2CN(C(=O)N2OS(=O)(=O)O)[C@@H]1C(N)=O 2.5

====

Assay: Urine PK (urinary excretion, renal clearance) in healthy subjects
Conditions: human, urine, intravenous, 4 g, CLr, median, part A cohort 6, single 4 g, n=4
ASSAY_ENDPOINT: CL renal

Identify measured CL renal corresponding to CC1=C[C@@H]2CN(C(=O)N2OS(=O)(=O)O)[C@@H]1C(N)=O 134 mL/min

====

Assay: Urine PK (urinary excretion, renal clearance) in healthy subjects
Conditions: human, urine, intravenous, 8 g, CLr, median, part B cohort 11, first 48 hours, dose over 48 hours 8.00 g (8 doses)
ASSAY_ENDPOINT: CL renal (mL/min)
API: value field is a number in mL/min; no unit string.

// fetch CL renal given entry CC1=C[C@@H]2CN(C(=O)N2OS(=O)(=O)O)[C@@H]1C(N)=O 392

====

Test: Part A single-ascending-dose plasma PK in healthy subjects
Assay type: in vivo, human
Conditions: human, plasma, iv, 8 g, part A cohort 7, single 8.0 g, 3-h i.v. infusion, mean ± SD, n=6; read-out: t1/2 (converted)
Experimental: This was a 4-part, double-blind, placebo-controlled study (15 cohorts) of DUR administered as a 3-h i.v. infusion (except for cohort 4, in which a 2-h i.v. infusion was evaluated) (see Table S5 in the supplemental material). […] AUC was calculated using the log-linear trapezoidal rule. […]
ASSAY_ENDPOINT: half-life (h)
Just the number please, in h, no unit attached.

Recall and state the measured half-life for CC1=C[C@@H]2CN(C(=O)N2OS(=O)(=O)O)[C@@H]1C(N)=O [DUR, Durlobactam] . 2.8

====

Test: Part A single-ascending-dose plasma PK in healthy subjects
Format: in vivo, human
Settings: human, plasma, iv, 1 g, part A cohort 4, single 1.0 g, 2-h i.v. infusion, median
ASSAY_ENDPOINT: Tmax

Indicate its recorded Tmax; the compound in question is CC1=C[C@@H]2CN(C(=O)N2OS(=O)(=O)O)[C@@H]1C(N)=O [DUR, Durlobactam] 2 h

====

Assay: Part A single-ascending-dose plasma PK in healthy subjects
Format: in vivo, human
Settings: human, plasma, iv, 0.25 g, part A cohort 1, single 0.25 g, 3-h i.v. infusion; read-out: Vss
ASSAY_ENDPOINT: Vd (L)
Give a bare numeral; the unit L is implied.

Give the value of Vd reported for the following: CC1=C[C@@H]2CN(C(=O)N2OS(=O)(=O)O)[C@@H]1C(N)=O [DUR, Durlobactam] 16.6

====

Assay: Part A single-ascending-dose plasma PK in healthy subjects
Type: in vivo, human
Details: human, plasma, iv, 4 g, part A cohort 6, single 4.0 g, 3-h i.v. infusion
ASSAY_ENDPOINT: clearance (mL/min)
Please reply with the bare figure in mL/min and do not write the unit itself.

Supply reported clearance belonging to this compound: CC1=C[C@@H]2CN(C(=O)N2OS(=O)(=O)O)[C@@H]1C(N)=O 185

====

Assay: Part A single-ascending-dose plasma PK in healthy subjects
Format: in vivo, human
Details: human, plasma, iv, 1 g, part A cohort 4, single 1.0 g, 2-h i.v. infusion; read-out: AUC0–24
ASSAY_ENDPOINT: AUC(0-t) (µg·h/mL)
Write the answer as a number in µg·h/mL, unit excluded.

// Input: CC1=C[C@@H]2CN(C(=O)N2OS(=O)(=O)O)[C@@H]1C(N)=O [DUR, Durlobactam] . Output its AUC(0-t) only. 101

====

Assay: Part C single-dose drug-drug interaction plasma PK in healthy subjects
Details: human, in vivo, 1 g, AUC0–24, part C cohort 13, SUL 1 g alone, day 1
ASSAY_ENDPOINT: AUC(0-t) (ng·h/mL)
Numbers only here, please. The scale is ng·h/mL.

Respond only with AUC(0-t) recorded for CC1(C)[C@H](C(=O)O)N2C(=O)C[C@H]2S1(=O)=O 68500

====

Test: Urine PK (urinary excretion, renal clearance) in healthy subjects
Settings: human, in vivo, CLr, part D cohort 15, Day 11, DUR + SUL + IMI-CIL q6h, mean
ASSAY_ENDPOINT: CL renal (mL/min)
Give your result in mL/min as a bare value.

Input CC1(C)C[C@@H]1C(=O)N/C(=C\CCCCSC[C@H](N)C(=O)O)C(=O)O , output reported CL renal. 183

====

Test: Part B multiple-ascending-dose plasma PK in healthy subjects
Assay type: in vivo, human
Details: human, plasma, iv; part B cohort 12, 2.0 g q6h 3-h i.v. infusion, day 8
ASSAY_ENDPOINT: clearance (mL/min)
Report only the number, with the unit mL/min understood.

Identify measured clearance corresponding to CC1=C[C@@H]2CN(C(=O)N2OS(=O)(=O)O)[C@@H]1C(N)=O 177

====

Assay: Part B multiple-ascending-dose plasma PK in healthy subjects
Type: in vivo, human
Settings: human, plasma, iv; part B cohort 10 (4 subjects), 0.5 g q6h 3-h i.v. infusion, day 8; read-out: Vss
ASSAY_ENDPOINT: Vd

Entry CC1=C[C@@H]2CN(C(=O)N2OS(=O)(=O)O)[C@@H]1C(N)=O [DUR, Durlobactam] needs its Vd filled in; supply it. 18.1 L

Source listed as paper PMC7318034.
